Test System: glutathione-S-transferase (GST) tagged LXRbeta LBD (ligand binding domain) (Homo sapiens, UniProt P55055)
Construct: purchased Invitrogen pv4658.pps
Assay Notes: LanthaScreen TR-FRET Liver X Receptor Coactivator Assay, co-activator recruitment to LXRbeta LBD
Format: biochemical
Measurement Setup: potency (Inflection Point, IP), co-activator recruitment to LXRbeta LBD, in relation to T0901317; read-out: LXR beta IP
Source text: […]
pEC50: −log10 of the molar value.
Assay Metric: pEC50

query: What does the record list as pEC50 for `CNC(=O)c1ccc(N2CCC(CC3CCN(C(=O)[C@](O)(c4cc(F)cc(OC)c4)C(F)(F)F)CC3)CC2)cc1Cl` ?
result: 8.15

query: Consider the molecule `CCc1cccc([C@@](O)(C(=O)N2CCC(CC3CCN(c4ccc(C(=O)N(C)C)c(C)c4)CC3)CC2)C(F)(F)F)c1` and give its measured pEC50.
result: 7.68

query: Would you kindly share the measured pEC50 for `Cc1cccc([C@@](O)(C(=O)N2CCC(CC3CCN(c4ccc(C(=O)N(C)C)c(Cl)c4)CC3)CC2)C(F)(F)F)c1` ?
result: 8.10

query: Request the reported pEC50 associated with CN(C)C(=O)c1ncc(N2CCC(CC3CCN(C(=O)C(O)(c4cccc(C(F)(F)F)c4)C(F)(F)F)CC3)CC2)cc1Cl (centres unmarked)
result: 7.54

query: Field request: pEC50 | item: Cc1nc(N2CCC(CC3CCN(C(=O)C(O)(c4cccc(Cl)c4)C(F)(F)F)CC3)CC2)ccc1C(=O)N(C)C (centres unmarked)
result: 7.44

query: Returns the measured pEC50 for the input molecule. Input: `CNC(=O)c1ccc(N2CCC(CC3CCN(C(=O)[C@](O)(c4cccc(F)c4)C(F)(F)F)CC3)CC2)nc1Cl`
result: 8.22

query: # pEC50 lookup, item CCc1cccc(C(O)(C(=O)N2CCC(CC3CCN(c4ccc(C(=O)N(C)C)c(Cl)n4)CC3)CC2)C(F)(F)F)c1 (centres unmarked)
result: 8.22

query: Field request: pEC50 | item: `O=C(c1ccc(N2CCC(CC3CCN(C(=O)[C@](O)(c4ccccc4)C(F)(F)F)CC3)CC2)cc1Cl)N1CCC1`
result: 7.28

A. CN(C)C(=O)c1ccc(N2CCC(CC3CCN(C(=O)[C@@](O)(c4ccccc4)C(F)(F)F)CC3)CC2)nc1Cl
B. CCc1cccc([C@@](O)(C(=O)N2CCC(C)(CC3CCN(c4ccc(C(=O)N(C)C)c(Cl)c4)CC3)CC2)C(F)(F)F)c1
C. CCc1cccc([C@@](O)(C(=O)N2CC(CC3CCN(c4ccc(C(=O)N(C)C)c(Cl)n4)CC3)C2)C(F)(F)F)c1
D. NC(=O)c1ccc(N2CCC(CC3CCN(C(=O)[C@](O)(c4cc(Cl)cc(Cl)c4)C(F)(F)F)CC3)CC2)cc1Cl
query: Your job: order these 4 records by pEC50, ascending. # output: labels, in the requested order
result: A, C, B, D

A. CN(C)C(=O)c1ccc(N2CCC(CC3CCN(C(=O)[C@](O)(c4cccc(Cl)c4)C(F)(F)F)CC3)CC2)cc1 [Example 2-131]
B. O=C(c1ccc(N2CCC(CC3CCN(C(=O)[C@](O)(c4ccccc4)C(F)(F)F)CC3)CC2)cc1Cl)N1CC[C@@H](CO)C1
query: Please compare: A and B . Report which one has the smaller pEC50 value. Answer by stating the label of the chosen item.
result: B
(B: 6.75, A: 7.28)

I. CCc1cccc([C@@](O)(C(=O)N2CCC(CC3CCN(c4ccc(C(=O)N(C)C)c(Cl)c4)CC3)CC2)C(F)(F)F)c1
II. CN(C)C(=O)c1ccc(N2CCC(OC3CCN(C(=O)C4(C(F)(F)F)CCCCC4)CC3)CC2)cc1Cl
query: So which one has the bigger pEC50 here, I or II ? Which one? Tell me its label.
result: I
(I: 7.82, II: 6.69)

A. Cc1nc(N2CCC(CC3CCN(C(=O)[C@](O)(c4cc(Cl)cc(Cl)c4)C(F)(F)F)CC3)CC2)ccc1C(=O)N(C)C
B. COc1cccc([C@@](O)(C(=O)N2CCC(CC3CCN(c4ccc(C(=O)N(C)C)c(Cl)c4)CC3)CC2)C(C)C)c1
C. CCOc1cccc([C@@](O)(C(=O)N2CCC(CC3CCN(c4ccc(C(=O)N(C)C)c(Cl)n4)CC3)CC2)C(F)(F)F)c1
D. Cc1nc(N2CCC(CC3CCN(C(=O)[C@](O)(c4ccccc4)C(F)(F)F)CC3)CC2)ccc1C(=O)N(C)C
query: List items by pEC50 in falling order. Reply: labels, ordered per the request.
result: C, A, D, B
(C: 8.22, A: 7.92, D: 7.72, B: 7.28)

I. CC(C)Oc1cccc(C(O)(C(=O)N2CCC(CC3CCN(c4ccc(C(=O)N(C)C)c(Cl)c4)CC3)CC2)C(F)(F)F)c1 (centres unmarked)
II. COc1nc(N2CCC(CC3CCN(C(=O)[C@](O)(c4ccccc4)C(F)(F)F)CC3)CC2)ccc1C(=O)N(C)C
III. CNC(=O)c1ccc(N2CCC(OC3CCN(C(=O)[C@](O)(c4ccccc4)C(F)(F)F)CC3)CC2)cc1Cl
query: Sort (3 molecules) by pEC50: min first. As an answer, provide the labels arranged in the order called for.
result: III, I, II

A. COc1cccc([C@@](O)(C(=O)N2CC(CC3CCN(c4ccc(C(=O)N(C)C)c(Cl)c4)CC3)C2)C(F)(F)F)c1
B. COc1cc(F)cc([C@@](O)(C(=O)N2CC(CC3CCN(c4ccc(C(=O)N(C)C)c(Cl)c4)CC3)C2)C(F)(F)F)c1
query: Identify the entry with the smaller pEC50: A or B . Refer to your chosen item by its label in the answer.
result: A
(A: 7.74, B: 8.15)

---

Test System: glutathione-S-transferase (GST) tagged LXRalpha LBD (ligand binding domain) (Homo sapiens, UniProt Q13133)
Construct: purchased Invitrogen pv4655
Sequence (Q13133 209-447 limits assumed): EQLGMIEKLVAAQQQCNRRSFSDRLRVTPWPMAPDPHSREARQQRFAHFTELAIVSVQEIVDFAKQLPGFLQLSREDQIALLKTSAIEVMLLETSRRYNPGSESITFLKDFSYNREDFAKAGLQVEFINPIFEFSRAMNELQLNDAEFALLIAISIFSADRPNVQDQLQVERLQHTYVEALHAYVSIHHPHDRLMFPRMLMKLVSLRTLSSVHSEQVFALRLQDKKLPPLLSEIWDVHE
Assay Notes: LanthaScreen TR-FRET Liver X Receptor Coactivator Assay, co-activator recruitment to LXRalpha LBD
Type: biochemical
Measurement Setup: co-activator recruitment to GST-LXRalpha LBD, TR-FRET; read-out: LXR alpha IP (Inflection Point, potency)
pEC50: −log10 of the molar value.
Assay Metric: pEC50

Consider the following illustrative entries.
query: // pEC50 lookup, key: `CN(C)C(=O)c1ccc(N2CCC(CC3CCN(S(=O)(=O)c4cccs4)CC3)CC2)cc1Cl`
result: 6.58

query: State the recorded pEC50 for this entry: `CN(C)C(=O)c1ccc(N2CCC(CC3CCN(S(=O)(=O)c4cccc(F)c4)CC3)CC2)cc1Cl`
result: 5.93

query: # lookup: pEC50 of `CN(C)C(=O)c1ccc(N2CCC(CC3CCN(S(=O)(=O)c4cc(F)ccc4F)CC3)CC2)cc1Cl`
result: 6.23

query: Give the measured pEC50 of `COc1cccc(S(=O)(=O)N2CCC(CC3CCN(c4ccc(C(=O)N(C)C)c(Cl)c4)CC3)CC2)c1` .
result: 6.13

query: Which measured pEC50 value corresponds to `CN(C)C(=O)c1ccc(N2CCC(CC3CN(S(=O)(=O)c4ccccc4)C3)CC2)nc1Cl` ?
result: 5.46

query: Reported pEC50, compound `COc1cccc(S(=O)(=O)N2CC(CC3CCN(c4ccc(C(=O)N(C)C)c(Cl)c4)CC3)C2)c1` : ____
result: 5.47

query: Please look up its pEC50: `CN(C)C(=O)c1ccc(N2CCC(CC3CN(S(=O)(=O)c4ccccc4)C3)CC2)cc1Cl`
result: 5.61

P. CC(C)c1cccc([C@@](O)(C(=O)N2CCC(CC3CCN(c4ccc(C(N)=O)c(Cl)c4)CC3)CC2)C(F)(F)F)c1
Q. CN(C)C(=O)c1ccc(N2CCC(CC3CCN(S(=O)(=O)c4ccccc4F)CC3)CC2)cc1Cl
R. CN(C)C(=O)c1ccc(N2CCC(CC3CCN(S(=O)(=O)c4ccc(F)cc4)CC3)CC2)cc1Cl
S. COc1cccc(S(=O)(=O)N2CC(CC3CCN(c4ccc(C(=O)N(C)C)c(Cl)n4)CC3)C2)c1
T. NC(=O)c1ccc(N2CCC(CC3CCN(C(=O)C(O)(c4cc(F)cc(Cl)c4)C(F)(F)F)CC3)CC2)cc1Cl (stereo not drawn)
query: Sort (5 compounds) by pEC50: min first. Kindly provide the labels arranged according to the requested ordering.
result: S, R, Q, P, T
(S: 4.99, R: 5.56, Q: 6.03, P: 7.07, T: 7.33)

---

Test System: glutathione-S-transferase (GST) tagged LXRbeta LBD (ligand binding domain) (Homo sapiens, UniProt P55055)
Construct: purchased Invitrogen pv4658.pps
Sequence (P55055 222-460 limits assumed): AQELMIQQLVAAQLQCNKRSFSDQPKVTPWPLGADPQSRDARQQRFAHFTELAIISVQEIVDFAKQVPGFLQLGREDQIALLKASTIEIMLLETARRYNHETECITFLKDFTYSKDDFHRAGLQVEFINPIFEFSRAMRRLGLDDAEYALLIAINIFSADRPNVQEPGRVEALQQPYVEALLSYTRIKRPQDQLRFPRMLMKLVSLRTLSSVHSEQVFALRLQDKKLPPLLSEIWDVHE
Assay Notes: LanthaScreen TR-FRET Liver X Receptor Coactivator Assay, co-activator recruitment to LXRbeta LBD
Format: biochemical
Measurement Setup: potency (Inflection Point, IP), co-activator recruitment to LXRbeta LBD, in relation to T0901317; read-out: LXR beta IP
Assay Metric: EC50 (nM)

Record excerpt, results attached:
query: Fill in: EC50 of O=C(c1ccc(N2CCC(CC3CCN(C(=O)[C@](O)(c4ccccc4)C(F)(F)F)CC3)CC2)cc1Cl)N1C2CCC1CC2 [Example 4-5] is ___
result: 59

query: For the compound shown here, COc1cccc([C@@](O)(C(=O)N2CCC(C)(CC3CCN(c4ccc(C(=O)N(C)C)c(Cl)c4)CC3)CC2)C(F)(F)F)c1 [Example 2-45] , give the reported EC50.
result: 7

query: Can you look up the measured EC50 of CC(C)(C)OC(=O)NC1CN(C(=O)c2ccc(N3CCC(CC4CCN(C(=O)[C@](O)(c5cc(Cl)cc(Cl)c5)C(F)(F)F)CC4)CC3)cc2Cl)C1 [Example 4-25] for me?
result: 3

a. CN(C)C(=O)c1ccc(N2CCC(CC3CCN(C(=O)[C@](O)(c4cc(Cl)cc(Cl)c4)C(F)(F)F)CC3)CC2)nc1Cl [Example 7-104]
b. O=C(c1ccc(N2CCC(CC3CCN(C(=O)[C@](O)(c4ccccc4)C(F)(F)F)CC3)CC2)cc1Cl)N1CC(F)(F)C1 [Example 4-8]
c. CN(C)C(=O)c1ccc(N2CCC(CC3CCN(C(=O)[C@](O)(c4cccc(OC5CC5)c4)C(F)(F)F)CC3)CC2)cc1Cl [Example 2-99]
query: Order each entry by recorded EC50, climbing from the minimum. Put the labels in the requested order and write them down.
result: a, c, b
(a: 3 nM, c: 8 nM, b: 172 nM)
